From: PubChem BioAssay

target: Short transient receptor potential channel 4 (Mus musculus); test: calcium flux activators in TRPC4/5HT1a cells, counter-screen for TRPC4 activator project, cell-based, second counter screen, HEK293 TRPC4/5HT1a, Fluo-4 (AID 434977); settings: Fluo-4 calcium flux, at 10 µM
Active and inactive are the calls of the source.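 Rule for the calls: active = calcium signal rise above buffer-control mean plus 5 SD in both duplicates, and also a hit in the primary screen; inactive = the rest.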
Your response should consist of one outcome taken from active, inactive

CC1CN(c2ccc([N+](=O)[O-])c3cccnc23)CC(C)N1 (stereo unspecified) :: active
CCN1CCN(c2cc(N3CCCC3)c([N+](=O)[O-])cc2F)CC1 :: inactive
COc1ccc(C(CNC(=O)c2ccc3c(c2)CCC3)N(C)C)cc1 (stereo unspecified) :: inactive
COC(=O)C1=C(c2cc3ccccc3s2)C[C@@H]2CC[C@H]1N2C(=O)NCCO :: inactive
Cc1ccccc1C(O)(Cc1ccccc1)C1CN2CCC1CC2 (stereo unspecified) :: inactive

Turning now to a further record.
Query: recorded result category for CN(C)C=C1C(=O)N(C2CCCCC2)C(=O)N(C2CCCCC2)C1=O in this test active
